// reported IC50 for each item listed
Molecular target: ADMP (ADAMTS-4-5) (Homo sapiens)
Construct: purchased Calbiochem PF113
Sequence (O75173 213-837): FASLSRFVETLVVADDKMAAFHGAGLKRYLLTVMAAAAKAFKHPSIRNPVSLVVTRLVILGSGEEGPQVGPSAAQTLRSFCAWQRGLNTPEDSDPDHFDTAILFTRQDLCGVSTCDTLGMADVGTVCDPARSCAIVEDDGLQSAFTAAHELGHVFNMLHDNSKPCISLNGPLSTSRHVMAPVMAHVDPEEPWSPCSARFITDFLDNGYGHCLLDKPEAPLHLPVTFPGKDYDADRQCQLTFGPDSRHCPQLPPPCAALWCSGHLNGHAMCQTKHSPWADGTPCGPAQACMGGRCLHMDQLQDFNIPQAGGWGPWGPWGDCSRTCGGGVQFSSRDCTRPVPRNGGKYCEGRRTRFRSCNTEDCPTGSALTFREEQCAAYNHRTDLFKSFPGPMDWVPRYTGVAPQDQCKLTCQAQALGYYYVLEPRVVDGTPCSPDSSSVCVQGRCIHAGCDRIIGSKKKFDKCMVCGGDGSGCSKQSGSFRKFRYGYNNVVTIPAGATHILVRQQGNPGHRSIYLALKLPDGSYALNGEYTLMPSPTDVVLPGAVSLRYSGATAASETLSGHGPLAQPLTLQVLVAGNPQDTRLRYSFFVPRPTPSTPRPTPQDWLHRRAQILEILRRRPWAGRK
Experiment: ADMP activity assay (procedures of WO00/05256)
Format: biochemical

Reference set, count: 2
- COc1ccc(CNC(=O)[C@H](O)[C@@H](O)C(=O)N2CCC(C(C)=O)(c3ccccc3)CC2)cc1 [Compound 108]: 250 to 1000 nM
- CC(=O)C1(c2ccccc2)CCN(C(=O)[C@H](O)[C@@H](O)C(=O)N[C@@H](C)c2ccc(Br)cc2)CC1 [Compound 133]: < 250 nM

*Q* Tell me measured IC50 for C[C@H](NC(=O)[C@H](O)[C@@H](O)C(=O)N1CCC(N2C(=O)Cc3ccccc32)CC1)c1ccc(Br)cc1 [Compound 165] please.
*A* 1000 to 5000 nM

###

Tested on: LpxC enzyme
Experiment: LpxC enzyme assay (RapidFire high-throughput mass spectrometry)
Format: biochemical
Conditions: concentration 25 (unit not given)
READOUT_TYPE: LpxC enzyme assay rating (% inhibition at indicated concentrations)

• CNC(=O)[C@H](O)[C@@H](O)C(=O)N1CCN(c2cccc(-c3ccccc3)c2)CC1 = B (10-30% inhibition)
• CCCc1ccc(NC(=O)[C@H](O)[C@@H](O)C(=O)N(C)C)cc1 = B (10-30% inhibition)
• CCC(C)c1ccc(NC(=O)[C@H](O)[C@@H](O)C(=O)N2CCCC2)cc1 (some centres unmarked) = B (10-30% inhibition)

###

Tested on: LpxC enzyme
Assay: LpxC enzyme assay (RapidFire high-throughput mass spectrometry)
Format: biochemical
Settings: concentration 0.10 (unit not given)
READOUT_TYPE: LpxC enzyme assay rating (% inhibition at indicated concentrations)

• CN(C)CCCOc1ccc(NC(=O)[C@H](O)[C@@H](O)C(=O)N(C)C)cc1 = B (10-30% inhibition)
• O=C(Nc1ccc(-c2ccc(C(F)(F)F)cc2)cc1)[C@H](O)[C@@H](O)C(=O)N1CCCC1 = B (10-30% inhibition)

###

System: LpxC enzyme
Test: LpxC enzyme assay (RapidFire high-throughput mass spectrometry)
Assay type: biochemical
Conditions: concentration 1.56 (unit not given)
READOUT_TYPE: LpxC enzyme assay rating (% inhibition at indicated concentrations)

- O=C(Nc1ccc(Oc2ccccc2)cc1)[C@H](O)[C@@H](O)C(=O)N1CCCC1: B (10-30% inhibition)
- CCC(C)c1ccc(NC(=O)[C@H](O)[C@@H](O)C(=O)NC)cc1 (some centres unmarked): B (10-30% inhibition)
- CN(C)C(=O)[C@H](O)[C@@H](O)C(=O)Nc1ccc(C#Cc2ccccc2)cc1: B (10-30% inhibition)

###

Tested on: LpxC enzyme
Experiment: LpxC enzyme assay (RapidFire high-throughput mass spectrometry)
Format: biochemical
Settings: concentration 50 (unit not given)
READOUT_TYPE: LpxC enzyme assay rating (% inhibition at indicated concentrations)

• O=C(Nc1ccc(-c2ccc(C(F)(F)F)cc2)cc1)[C@H](O)[C@@H](O)C(=O)N1CCCC1 [Compound 65] = B (10-30% inhibition)
• CNC(=O)[C@H](O)[C@@H](O)C(=O)N1CCC(c2ccc(C(F)(F)F)cc2)CC1 [Compound 35] = B (10-30% inhibition)

###

System: LpxC enzyme
Assay: LpxC enzyme assay (RapidFire high-throughput mass spectrometry)
Format: biochemical
Details: concentration 0.10 (unit not given)
READOUT_TYPE: LpxC enzyme assay rating (% inhibition at indicated concentrations)

* CN(C)CCCOc1ccc(NC(=O)[C@H](O)[C@@H](O)C(=O)N2CCCC2)cc1 | B (10-30% inhibition)
* O=C(Nc1ccc(Oc2ccccc2)cc1)[C@H](O)[C@@H](O)C(=O)N1CCCC1 | B (10-30% inhibition)
* O=C(Nc1ccc(-c2ccccc2)cc1)[C@H](O)[C@@H](O)C(=O)N1CCCC1 | B (10-30% inhibition)
